Biological target: Cyclin-dependent kinase 4 (Homo sapiens)
Sequence (P11802 whole entry): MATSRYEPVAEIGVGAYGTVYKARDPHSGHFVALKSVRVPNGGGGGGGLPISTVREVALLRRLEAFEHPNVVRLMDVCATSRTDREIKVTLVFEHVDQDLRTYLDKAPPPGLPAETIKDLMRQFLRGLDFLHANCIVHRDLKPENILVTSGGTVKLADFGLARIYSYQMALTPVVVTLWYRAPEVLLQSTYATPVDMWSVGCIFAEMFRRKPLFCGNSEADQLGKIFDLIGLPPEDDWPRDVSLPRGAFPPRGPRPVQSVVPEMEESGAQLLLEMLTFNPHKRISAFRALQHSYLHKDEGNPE
pIC50: −log10 of the molar value.
METRIC_NAME: pIC50

q: Quote Cyclin-dependent kinase 4 (Homo sapiens) pIC50 for entry CC(C)N1CCN(C(=O)c2ccnc(Nc3cc(-c4ccc5nnn(C(C)C)c5c4)ccn3)c2)CC1 .
a: < 6.30

---

Test: AUC (0 to t) in Sprague-Dawley rat at 10 mg/kg,po administration measured for 0.25 to 24 hrs by LC-MS/MS analysis
Assay type: ADME, organism-based
Settings: in vivo, time 0.25-24 hrs
METRIC_NAME: AUC(0-t) (ng·h/mL)
Record the value in ng·h/mL, omitting the unit from your answer.

q: Tell me its AUC(0-t) given CC(C)n1nnc2ccc(-c3ccnc(Nc4cc(C(=O)N5CCCN(C)CC5)ccn4)c3)cc21 as the entry.
a: 168

---

Target: UniProt:P33261
Sequence (P33261 whole entry): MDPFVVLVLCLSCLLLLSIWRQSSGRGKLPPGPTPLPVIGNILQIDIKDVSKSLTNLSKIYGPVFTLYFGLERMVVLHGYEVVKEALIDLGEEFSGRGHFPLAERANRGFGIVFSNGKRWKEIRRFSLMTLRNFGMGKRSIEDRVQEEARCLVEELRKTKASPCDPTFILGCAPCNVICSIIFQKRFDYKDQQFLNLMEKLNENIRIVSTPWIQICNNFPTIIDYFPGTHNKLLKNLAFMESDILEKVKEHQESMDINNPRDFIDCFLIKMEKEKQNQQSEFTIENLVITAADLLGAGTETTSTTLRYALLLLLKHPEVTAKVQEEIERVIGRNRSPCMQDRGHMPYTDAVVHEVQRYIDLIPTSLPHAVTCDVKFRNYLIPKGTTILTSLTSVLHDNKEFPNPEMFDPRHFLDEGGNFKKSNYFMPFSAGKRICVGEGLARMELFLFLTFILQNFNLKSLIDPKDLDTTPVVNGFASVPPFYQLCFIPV
Experiment: Inhibition of CYP2C19 in human liver microsomes using benzylnirvanol as […] at 10 uM preincubated for 10 mins followed by NADPH addition measured after 15 mins by LC-MS/MS analysis relative to control
Type: ADME, Microsome
Details: probe benzylnirvanol, time 25 min
METRIC_NAME: inhibition at 0.25 h, 10 µM (%)
Record the value in %, omitting the unit from your answer.

# example entries with known answers
CC(C)n1nnc2ccc(-c3ccnc(Nc4cc(C(=O)N5CCCN(C)CC5)ccn4)c3)cc21	24.5
CC(C)n1nnc2ccc(-c3ccnc(Nc4cc(C(=O)N5CCCC5)ccn4)c3)cc21	56.1

Then there is this molecule:
q: Tell me its inhibition at 0.25 h, 10 µM given CC(C)N1CCN(C(=O)c2ccnc(Nc3cc(-c4ccc5nnn(C(C)C)c5c4)ccn3)c2)CC1 as the entry.
a: 48.3

---

Experiment: MRT (0 to t) in Sprague-Dawley rat at 2 mg/kg,iv administration measured for 0.25 to 24 hrs by LC-MS/MS analysis
Type: ADME, organism-based
Conditions: in vivo, time 0.25-24 hrs
METRIC_NAME: MRT last (h)
Record the value in h, omitting the unit from your answer.

q: Tell me its MRT last given CC(C)n1nnc2ccc(-c3ccnc(Nc4cc(C(=O)N5CCCN(C)CC5)ccn4)c3)cc21 as the entry.
a: 1.48

---

Test: Tmax in Sprague-Dawley rat at 10 mg/kg,po administration measured for 0.25 to 24 hrs by LC-MS/MS analysis
Type: ADME, organism-based
Conditions: in vivo, time 0.25-24 hrs
METRIC_NAME: Tmax (min)
Record the value in min, omitting the unit from your answer.

q: Tell me its Tmax given CC(C)n1nnc2ccc(-c3ccnc(Nc4cc(C(=O)N5CCCN(C)CC5)ccn4)c3)cc21 as the entry.
a: 30

---

Molecular target: Cyclin-dependent kinase 2 (Homo sapiens)
METRIC_NAME: pIC50
Hey, just a heads up that pIC50 is the negative log base 10 of the concentration in molar.

q: Quote Cyclin-dependent kinase 2 (Homo sapiens) pIC50 for entry CC(C)n1nnc2ccc(-c3ccnc(Nc4cc(C(=O)N5CCCC5)ccn4)c3)cc21 .
a: 6.87

---

Target: Cyclin-dependent kinase 5 (Homo sapiens, UniProt Q00535)
Sequence (Q00535 whole entry): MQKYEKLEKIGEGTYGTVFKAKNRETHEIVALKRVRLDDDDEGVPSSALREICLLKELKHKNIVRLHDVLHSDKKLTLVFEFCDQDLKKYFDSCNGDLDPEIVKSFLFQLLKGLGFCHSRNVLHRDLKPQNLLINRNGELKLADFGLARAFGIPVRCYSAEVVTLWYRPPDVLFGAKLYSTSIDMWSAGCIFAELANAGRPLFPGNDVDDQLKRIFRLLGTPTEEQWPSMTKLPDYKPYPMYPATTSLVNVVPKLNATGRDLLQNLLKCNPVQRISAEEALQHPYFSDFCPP
METRIC_NAME: IC50

q: Tell me its IC50 given CC(C)n1nnc2ccc(-c3ccnc(Nc4cc(C(=O)N5CCCC5)ccn4)c3)cc21 as the entry.
a: > 500 nM

---

Assay: MRT (0 to t) in Sprague-Dawley rat at 10 mg/kg,po administration measured for 0.25 to 24 hrs by LC-MS/MS analysis
Type: ADME, organism-based
Conditions: in vivo, time 0.25-24 hrs
METRIC_NAME: MRT last
The number alone won't do; follow it with the unit.

q: Tell me its MRT last given CC(C)n1nnc2ccc(-c3ccnc(Nc4cc(C(=O)N5CCCN(C)CC5)ccn4)c3)cc21 as the entry.
a: 4.62 h

---

Molecular target: CYP3A4 (Homo sapiens, UniProt P08684)
Sequence (P08684 whole entry): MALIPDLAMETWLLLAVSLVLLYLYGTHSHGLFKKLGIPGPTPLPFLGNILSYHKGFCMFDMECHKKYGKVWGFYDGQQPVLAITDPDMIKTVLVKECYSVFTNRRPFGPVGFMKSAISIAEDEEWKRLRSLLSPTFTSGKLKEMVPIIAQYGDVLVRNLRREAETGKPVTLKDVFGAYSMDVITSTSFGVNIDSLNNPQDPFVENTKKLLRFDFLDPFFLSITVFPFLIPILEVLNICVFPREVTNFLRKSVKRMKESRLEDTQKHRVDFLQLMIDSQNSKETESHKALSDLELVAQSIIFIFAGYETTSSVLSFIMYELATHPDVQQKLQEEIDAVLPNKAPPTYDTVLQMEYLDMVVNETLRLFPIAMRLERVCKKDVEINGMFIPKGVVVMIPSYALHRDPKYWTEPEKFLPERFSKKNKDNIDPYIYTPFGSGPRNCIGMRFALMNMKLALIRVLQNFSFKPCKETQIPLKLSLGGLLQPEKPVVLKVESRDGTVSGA
Test: Inhibition of CYP3A4 in human liver microsomes using ketoconazole as […] at 10 uM preincubated for 10 mins followed by NADPH addition measured after 15 mins by LC-MS/MS analysis relative to control
Type: ADME, Microsome
Conditions: probe ketoconazole, time 25 min
METRIC_NAME: inhibition at 0.25 h, 10 µM (%)
Record the value in %, omitting the unit from your answer.

# example entries with known answers
CC(C)N1CCN(C(=O)c2ccnc(Nc3cc(-c4ccc5nnn(C(C)C)c5c4)ccn3)c2)CC1	15.7
CC(C)n1nnc2ccc(-c3ccnc(Nc4cc(C(=O)N5CCCN(C)CC5)ccn4)c3)cc21	0

Then there is this compound:
q: Tell me its inhibition at 0.25 h, 10 µM given CC(C)n1nnc2ccc(-c3ccnc(Nc4cc(C(=O)N5CCCC5)ccn4)c3)cc21 as the entry.
a: 0

---

Target: CYP1A2 (Homo sapiens, UniProt P05177)
Sequence (P05177 whole entry): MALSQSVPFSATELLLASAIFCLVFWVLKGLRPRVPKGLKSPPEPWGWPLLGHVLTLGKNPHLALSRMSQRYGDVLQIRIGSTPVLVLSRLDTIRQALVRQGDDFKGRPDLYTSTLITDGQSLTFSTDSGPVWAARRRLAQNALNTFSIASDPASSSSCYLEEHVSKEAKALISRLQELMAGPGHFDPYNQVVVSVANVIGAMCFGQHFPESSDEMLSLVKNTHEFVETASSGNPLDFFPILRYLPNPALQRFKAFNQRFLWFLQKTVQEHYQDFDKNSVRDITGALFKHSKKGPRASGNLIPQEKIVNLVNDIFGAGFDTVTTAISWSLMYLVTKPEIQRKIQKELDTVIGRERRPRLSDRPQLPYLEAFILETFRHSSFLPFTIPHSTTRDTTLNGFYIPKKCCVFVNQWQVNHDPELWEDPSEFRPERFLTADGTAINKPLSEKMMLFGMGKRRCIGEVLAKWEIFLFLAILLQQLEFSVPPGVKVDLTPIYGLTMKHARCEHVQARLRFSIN
Test: Inhibition of CYP1A2 in human liver microsomes using alpha-naphthoflavone as […] at 10 uM preincubated for 10 mins followed by NADPH addition measured after 15 mins by LC-MS/MS analysis relative to control
Format: ADME, Microsome
Conditions: time 25 min
A collection of compounds and their measured inhibition at 0.25 h, 10 µM
Record the value in %, omitting the unit from your answer.

# example entries with known answers
CC(C)n1nnc2ccc(-c3ccnc(Nc4cc(C(=O)N5CCCC5)ccn4)c3)cc21	12.2
CC(C)N1CCN(C(=O)c2ccnc(Nc3cc(-c4ccc5nnn(C(C)C)c5c4)ccn3)c2)CC1	25.1

Then there is this compound:
q: Tell me its inhibition at 0.25 h, 10 µM given CC(C)n1nnc2ccc(-c3ccnc(Nc4cc(C(=O)N5CCCN(C)CC5)ccn4)c3)cc21 as the entry.
a: 34.6

---

Experiment: AUC (0 to infinity) in Sprague-Dawley rat at 10 mg/kg,po administration measured for 0.25 to 24 hrs by LC-MS/MS analysis
Format: ADME, organism-based
Details: in vivo, time 0.25-24 hrs
METRIC_NAME: AUC(0-inf) (ng·h/mL)
Record the value in ng·h/mL, omitting the unit from your answer.

q: Tell me its AUC(0-inf) given CC(C)n1nnc2ccc(-c3ccnc(Nc4cc(C(=O)N5CCCN(C)CC5)ccn4)c3)cc21 as the entry.
a: 199

---

Assay: Half life in Sprague-Dawley rat at 10 mg/kg,po administration measured for 0.25 to 24 hrs by LC-MS/MS analysis
Assay type: ADME, organism-based
Conditions: in vivo, time 0.25-24 hrs
METRIC_NAME: half-life
The number alone won't do; follow it with the unit.

q: Tell me its half-life given CC(C)n1nnc2ccc(-c3ccnc(Nc4cc(C(=O)N5CCCN(C)CC5)ccn4)c3)cc21 as the entry.
a: 5.28 h

---

Assay: Clearance in Sprague-Dawley rat at 2 mg/kg,iv administration measured for 0.25 to 24 hrs by LC-MS/MS analysis
Assay type: ADME, organism-based
Conditions: in vivo, time 0.25-24 hrs
METRIC_NAME: clearance (mL/min/kg)
Record the value in mL/min/kg, omitting the unit from your answer.

q: Tell me its clearance given CC(C)n1nnc2ccc(-c3ccnc(Nc4cc(C(=O)N5CCCN(C)CC5)ccn4)c3)cc21 as the entry.
a: 89.8

---

A collection of molecules and their measured remaining at 1 h, 100 µM
Experiment: Stability in human liver microsomes assessed as compound remaining at 100 uM measured upto 60 mins in presence of NADPH by LC-MS/MS analysis
Format: ADME, Microsome
Conditions: read-out: Stability
Record the value in %, omitting the unit from your answer.

# example entries with known answers
CC(C)n1nnc2ccc(-c3ccnc(Nc4cc(C(=O)N5CCCC5)ccn4)c3)cc21	9
CC(C)n1nnc2ccc(-c3ccnc(Nc4cc(C(=O)N5CCCN(C)CC5)ccn4)c3)cc21	19.6

Then there is this molecule:
q: Tell me its remaining at 1 h, 100 µM given CC(C)N1CCN(C(=O)c2ccnc(Nc3cc(-c4ccc5nnn(C(C)C)c5c4)ccn3)c2)CC1 as the entry.
a: 0.5

---

A collection of molecules and their measured half-life at 100 µM
Experiment: Half life in human liver microsomes at 100 uM measured upto 60 mins in presence of NADPH by LC-MS/MS analysis
Format: ADME, Microsome
Record the value in min, omitting the unit from your answer.

# example entries with known answers
CC(C)n1nnc2ccc(-c3ccnc(Nc4cc(C(=O)N5CCCN(C)CC5)ccn4)c3)cc21	25.2
CC(C)n1nnc2ccc(-c3ccnc(Nc4cc(C(=O)N5CCCC5)ccn4)c3)cc21	17.4

Then there is this molecule:
q: Tell me its half-life at 100 µM given CC(C)N1CCN(C(=O)c2ccnc(Nc3cc(-c4ccc5nnn(C(C)C)c5c4)ccn3)c2)CC1 as the entry.
a: 7.8

---

Target: CDK9/cyclin T1 (Homo sapiens, UniProt P50750)
Sequence (O60563 whole entry): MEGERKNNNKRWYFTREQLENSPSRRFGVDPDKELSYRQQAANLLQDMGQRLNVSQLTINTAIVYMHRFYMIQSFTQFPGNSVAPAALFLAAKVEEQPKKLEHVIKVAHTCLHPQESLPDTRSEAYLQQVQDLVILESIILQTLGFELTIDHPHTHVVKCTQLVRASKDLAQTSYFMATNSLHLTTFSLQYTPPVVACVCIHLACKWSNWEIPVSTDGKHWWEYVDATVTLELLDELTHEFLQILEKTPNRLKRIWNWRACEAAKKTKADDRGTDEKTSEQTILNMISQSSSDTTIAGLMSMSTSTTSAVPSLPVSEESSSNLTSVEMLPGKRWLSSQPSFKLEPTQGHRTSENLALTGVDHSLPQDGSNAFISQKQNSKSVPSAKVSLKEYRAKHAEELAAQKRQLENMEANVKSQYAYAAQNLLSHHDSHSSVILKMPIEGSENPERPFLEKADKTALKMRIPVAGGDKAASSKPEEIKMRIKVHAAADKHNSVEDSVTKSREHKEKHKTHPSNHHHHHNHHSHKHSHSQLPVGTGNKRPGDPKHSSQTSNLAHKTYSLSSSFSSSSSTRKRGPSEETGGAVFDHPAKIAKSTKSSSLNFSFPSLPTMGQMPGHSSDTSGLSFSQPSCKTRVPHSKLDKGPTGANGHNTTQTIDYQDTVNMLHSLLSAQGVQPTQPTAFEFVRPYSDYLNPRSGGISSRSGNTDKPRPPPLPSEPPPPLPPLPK
Sequence (P50750 whole entry): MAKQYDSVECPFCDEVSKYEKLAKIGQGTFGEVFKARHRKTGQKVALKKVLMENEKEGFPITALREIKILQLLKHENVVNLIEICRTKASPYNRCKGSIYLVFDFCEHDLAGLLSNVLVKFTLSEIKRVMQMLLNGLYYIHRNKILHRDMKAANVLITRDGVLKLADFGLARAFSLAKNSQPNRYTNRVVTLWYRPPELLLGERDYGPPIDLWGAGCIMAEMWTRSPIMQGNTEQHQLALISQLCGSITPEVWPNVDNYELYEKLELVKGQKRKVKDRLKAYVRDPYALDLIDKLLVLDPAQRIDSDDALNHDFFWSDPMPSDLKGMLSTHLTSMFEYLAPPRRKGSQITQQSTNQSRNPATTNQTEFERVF
Test: Inhibition of CDK9/Cyclin T1 (unknown origin) using PDKtide substrate incubated for 60 mins by ADP-Glo kinase assay
A collection of compounds and their measured IC50
Record the value in nM, omitting the unit from your answer.

CC(C)N1CCN(C(=O)c2ccc(Nc3cc(-c4ccc5nnn(C(C)C)c5c4)ccn3)nc2)CC1	4.08
CCN1CCN(C(=O)c2ccc(Nc3cc(-c4ccc5nnn(C(C)C)c5c4)ccn3)nc2)CC1	3.8
CC(C)(C)n1nnc2ccc(-c3ccnc(Nc4ccc(C(=O)N5CCOCC5)cn4)c3)cc21	9.73

q: Tell me its IC50 given CC(C)n1nnc2ccc(-c3ccnc(Nc4ccc(C(=O)N5CCOCC5)cn4)c3)cc21 as the entry.
a: 9.43

q: Tell me its IC50 given CC(C)n1nnc2ccc(-c3ccnc(Nc4cc(C(=O)N5CCOCC5)ccn4)c3)cc21 as the entry.
a: 3.06

q: Tell me its IC50 given CC(C)n1nnc2ccc(-c3ccnc(Nc4ccc(C(=O)N5CCCN(C)CC5)cn4)c3)cc21 as the entry.
a: 3.05

q: Tell me its IC50 given CC(C)n1nnc2ccc(-c3ccnc(Nc4cc(C(=O)N5CCNC(=O)C5)ccn4)c3)cc21 as the entry.
a: 1.94

q: Tell me its IC50 given CC(C)n1nnc2ccc(-c3ccnc(Nc4ccc(C(=O)N5CCCC5)cn4)c3)cc21 as the entry.
a: 6.62

q: Tell me its IC50 given CC(C)n1nnc2ccc(-c3ccnc(Nc4ccc(C(=O)N5CCN(C)CC5)cn4)c3)cc21 as the entry.
a: 4.39

q: Tell me its IC50 given CC(C)N1CCN(C(=O)c2ccnc(Nc3cc(-c4ccc5nnn(C(C)C)c5c4)ccn3)c2)CC1 as the entry.
a: 3.37

q: Tell me its IC50 given O=C(c1ccc(Nc2cc(-c3ccc4nnn(C5CCCCC5)c4c3)ccn2)nc1)N1CCOCC1 as the entry.
a: 13.2

q: Tell me its IC50 given CC(C)n1nnc2ccc(-c3ccnc(Nc4cc(C(=O)N5CCN(C)CC5)ccn4)c3)cc21 as the entry.
a: 3.44

q: Tell me its IC50 given CC(C)n1nnc2ccc(-c3ccnc(Nc4ccc(C(=O)N5CCNC(=O)C5)cn4)c3)cc21 as the entry.
a: 2.3
